# SYSTEM UNDER TEST: T1, Human B7-H4 with HisFlag tag (huB7-H4-his) (human, UniProt Q7Z7D3 25-258)
# T1 construct: also called HuB7-H4 His protein; huB7-H4-HF
# T1 sequence: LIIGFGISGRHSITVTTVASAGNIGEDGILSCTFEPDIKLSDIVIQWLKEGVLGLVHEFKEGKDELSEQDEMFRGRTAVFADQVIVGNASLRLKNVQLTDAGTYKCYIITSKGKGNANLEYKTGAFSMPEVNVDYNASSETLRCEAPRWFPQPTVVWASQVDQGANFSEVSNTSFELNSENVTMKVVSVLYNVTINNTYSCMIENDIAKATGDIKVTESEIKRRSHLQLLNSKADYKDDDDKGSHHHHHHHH
# ASSAY EXPLANATION: SPR Biacore T200, antibody coupled to CM5 chip, 50 nM huB7-H4-his in flow, 1:1 model
So I've got a bunch of binders here, and I need their koff values.
Please respond with the number in s⁻¹ and leave the unit unwritten.

Short answer for murine mAb 2F8 (antibody, V domains shown, Murine antibody from hybridoma) VH: QVQLQQPGSVLVRPGASVKLSCKASGYTFTNSWMNWAKLRPGQGLEWIGGIYPNSGNIEYNEKFKGKATLTVDTSSSTAYMDLTSLTSEDSAVYYCARDSRFSYWGQGTLVTVSA VL: DIVMTQSHKFMSTSVGDRVSITCKASQDVRTAVAWYQQKPGQSPKLLISSTSYRYTGVPDRFTGSGSGTDFTFIISSVQAEDLAVYYCQQHYSTPLTFGAGTKLELK : koff was 6.87e-05

Short answer for M1 (listed as murine antibody) (antibody, V domains shown) VH: EIQLQQSGPELVMPGASVKVSCTASGYPFTTYNMYWVKQSHGKSLEWIAYIDPYNGGTSYNQKFKGKATLTVDKSSSTAYMHLNSLTSEDSAVYYCARSGFYDGYYAWYFDVWGAGTTVTVSS VL: DVVMTQTPLSLPVSLGDQASISCRSSQSLVHSGGNTYLHWYLQKPGQSPKLLIYKVSNRFSGVPDRFSGSGSGTDFTLKISRVEAEDLGVYFCSQSTHVPLTFGAGTKLELK : koff was 3.98e-05

Short answer for murine mAb 2F7 (antibody, V domains shown, Murine antibody from hybridoma) VH: EVQLVESGGGLVQPGGSLKLSCAASGFTFSNYYMSWVRQTPEKRLEWVAYVSSGGGSTYYSDSVKGRFTISRDNAKNTLYLQMSSLKPEDTAMYYCTRESYSQGNYFDYWGQGTTLTVSS VL: DIVMTQSPATLSVTPGDRVSLSCRASQSISDYLHWYQQKSHESPRLLIKFASQSISGIPSRFSGSGSGSDFTLSINSVEPEDVGVYYCQNGHSFSLTFGAGTKLELK : koff was 0.00253
